studySystem: T1, PSMA Fab (006 PSMA Fab) (biotinylated (site not given))
T1 construct: also called Anti-PSMA Fab; anti-PSMA Fab
assayText: clonal phage ELISA; biotinylated PSMA Fab on neutravidin plate, wells pre-incubated with PSMA antigen as competitor; anti-M13 HRP detection;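 also: crude clonal phage supernatants added to antigen-treated wells without a wash, incubated briefly, then bound phage read out via horse radish–conjugated anti-M13 antibody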
Where no end group is shown, it is not given here.
assayEndpoint: Phage binding ELISA signal, Anti-PSMA Fab with PSMA antigen

INSERT INTO assay_data (binder, recordedvalue) VALUES
  ('FPKWCTPEWMCSLT (cysteine pairing not given here; also: displayed on phage pIII, linker not given here, Clonal phage of the Peptide-180 library, tested as crude phage supernatant; not shown: pIII filament protein of the bacteriophage) [Phage-2645]', 0.0592),
  ('VEKLCKPAWMCNGQ (cysteine pairing not given here; also: displayed on phage pIII, linker not given here, Clonal phage of the Peptide-180 library, tested as crude phage supernatant; not shown: pIII filament protein of the bacteriophage) [Phage-2643]', 0.0808),
  ('PERMCVPQWMCTVT (cysteine pairing not given here; also: displayed on phage pIII, linker not given here, Clonal phage of the Peptide-180 library, tested as crude phage supernatant; not shown: pIII filament protein of the bacteriophage) [Phage-2644]', 0.107),
  ('VPKWCTPEWMCIIH (cysteine pairing not given here; also: displayed on phage pIII, linker not given here, Clonal phage of the Peptide-180 library, tested as crude phage supernatant; not shown: pIII filament protein of the bacteriophage) [Phage-2640]', 0.0705);
